# Target or system: BiP NBD (Homo sapiens)
# Sequence (P11021 19-406): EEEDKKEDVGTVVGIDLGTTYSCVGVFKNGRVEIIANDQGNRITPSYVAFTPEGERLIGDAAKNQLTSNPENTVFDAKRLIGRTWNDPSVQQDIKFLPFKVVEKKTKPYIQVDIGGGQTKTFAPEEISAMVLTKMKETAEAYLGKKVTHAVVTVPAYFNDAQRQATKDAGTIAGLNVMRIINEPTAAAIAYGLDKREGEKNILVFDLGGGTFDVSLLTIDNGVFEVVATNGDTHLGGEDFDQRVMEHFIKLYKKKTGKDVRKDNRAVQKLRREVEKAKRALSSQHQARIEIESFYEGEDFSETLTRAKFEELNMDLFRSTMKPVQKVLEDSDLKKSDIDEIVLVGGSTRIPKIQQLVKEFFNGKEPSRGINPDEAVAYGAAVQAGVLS
# Assay comment: Global kinetic fit (MCMC) of four NMR data sets (E1+E2, E1 only, E2 only, no recycling): functional cycle kinetic parameters
# Format: biochemical
# Set-up: His6 (N, cleaved yes); made in house; host or cells: E. coli BL21-(DE3)-Lemo, pET28a vector
# Particulars: Supplementary Fig 10b, time 64 min
Measurement type: species (µM)

>  <Compound>
CC(=O)C(=O)O [Pyruvate]

>  <species, µM>
5335

$$$$
>  <Compound>
O=P(O)(O)O

>  <species, µM>
5335

$$$$
>  <Compound>
C=C(OP(=O)(O)O)C(=O)O

>  <species, µM>
4465

$$$$
>  <Compound>
Nc1ncnc2c1ncn2[C@@H]1O[C@H](COP(=O)(O)OP(=O)(O)OP(=O)(O)O)[C@@H](O)[C@H]1O

>  <species, µM>
4989

$$$$
